system: G-401 (Other Solid Carcinomas); test: combination Emax (second highest fraction inhibited in the dose matrix, 72 h); higher = more inhibition; extreme values may be limits of the assay
MEASUREMENT KIND: combination Emax
Numbers only.

Below, 5 compounds whose answers are already recorded.
So what's the measured combination Emax for this one? CCN(CCO)CCCOc1ccc2c(Nc3cc(CC(=O)Nc4cccc(F)c4)[nH]n3)ncnc2c1 [AZD2811] + O=C(c1cc(Cc2n[nH]c(=O)c3ccccc23)ccc1F)N1CCN(C(=O)C2CC2)CC1 [Olaparib] (first compound max 1 µM, 7x7, partner max 10 µM)
0.496

For CC(=O)c1c(C)c2cnc(Nc3ccc(N4CCNCC4)cn3)nc2n(C2CCCC2)c1=O [Palbociclib] + CN(CC[C@H](CSC1=CC=CC=C1)NC2=C(C=C(C=C2)S(=O)(=O)NC(=O)C3=CC=C(C=C3)N4CCC(CC4)[C@H](C5=CC=CC=C5C6=CC=C(C=C6)Cl)O)S(=O)(=O)C(F)(F)F)CCO [AZD4320] (first compound max 10 µM, 7x7, partner max 1 µM) then?
0.974

For NC1(C(=O)N[C@@H](CCO)c2ccc(Cl)cc2)CCN(c2ncnc3[nH]ccc23)CC1 [Capivasertib] + COc1nnc2ccc(N3CCC(c4ccc(OCCN5CCN(C)C(=O)[C@H]5C)cc4)CC3)nn12 [AZD5153] (first compound max 10 µM, 7x7, partner max 1 µM) then?
0.79

For NC1(C(=O)N[C@@H](CCO)c2ccc(Cl)cc2)CCN(c2ncnc3[nH]ccc23)CC1 [Capivasertib] + C[C@@H]1COCCN1C2=NC(=NC(=C2)C3(CC3)[S@](=N)(=O)C)C4=C5C=CNC5=NC=C4 [AZD6738] (first compound max 10 µM, 7x7, partner max 10 µM) then?
0.751

For COc1nnc2ccc(N3CCC(c4ccc(OCCN5CCN(C)C(=O)[C@H]5C)cc4)CC3)nn12 [AZD5153] + CCN(CCO)CCCOc1ccc2c(Nc3cc(CC(=O)Nc4cccc(F)c4)[nH]n3)ncnc2c1 [AZD2811] (first compound max 1 µM, 7x7, partner max 1 µM) then?
0.806

Your task in this section: give combination Emax for each listed record.
1. COc1cc2c(cc1OCCCCCOc1cc3c(cc1OC)C(=O)N1C=C(C)C[C@H]1C=N3)N=C[C@@H]1CC(C)=CN1C2=O [SG3199] + O=C(c1cc(Cc2n[nH]c(=O)c3ccccc23)ccc1F)N1CCN(C(=O)C2CC2)CC1 [Olaparib] (first compound max 0.001 µM, 7x7, partner max 10 µM)
2. CN(CCO)CC[C@H](CSc1ccccc1)Nc1ccc(S(=O)(=O)NC(=O)c2ccc(N3CCC([C@@H](O)c4ccccc4-c4ccc(Cl)cc4)CC3)cc2)cc1S(=O)(=O)C(F)(F)F [AZD4320] + C=CCn1c(=O)c2cnc(Nc3ccc(N4CCN(C)CC4)cc3)nc2n1-c1cccc(C(C)(C)O)n1 [AZD1775] (first compound max 1 µM, partner max 1 µM)

0.32
0.901
